# Experimental parameters: PAMPA
Where a SMILES comes first, the peptide text is derived from it. [ ]: non-standard residue; d: D form. NMeF = CN[C@@H](Cc1ccccc1)C(=O)O; NMeI = CC[C@H](C)[C@H](NC)C(=O)O; dNMeF = CN[C@H](Cc1ccccc1)C(=O)O; NMeL = CN[C@@H](CC(C)C)C(=O)O; dNMeL = CN[C@H](CC(C)C)C(=O)O
Value type: PAMPA_R1
Give the value as a plain number.

Per the record, CC[C@H](C)[C@@H]1NC(=O)[C@H](Cc2ccccc2)N(C)C(=O)[C@H]2CCCN2C(=O)[C@@H](CC(C)C)N(C)C(=O)[C@@H](Cc2ccccc2)NC(=O)[C@H](C(C)C)NC(=O)[C@H](CC(C)C)NC(=O)[C@H]2CCCN2C(=O)[C@H](CC(C)C)NC(=O)[C@@H]2CCCN2C1=O [Design D10.50] (cyclo(IPL[dP]LV[dF][dNMeL][dP][NMeF])) has PAMPA_R1 of 8.97E-07

Per the record, CC[C@H](C)[C@H]1C(=O)N[C@H](C)C(=O)N[C@@H](CC(C)C)C(=O)N[C@@H](C(C)C)C(=O)N2CCC[C@@H]2C(=O)N(C)[C@@H](CC(C)C)C(=O)N[C@@H](C(C)C)C(=O)N2CCC[C@H]2C(=O)N(C)[C@H](CC(C)C)C(=O)N[C@@H](C(C)C)C(=O)N1C [Design D10.19] (cyclo(LV[dP][NMeL]VP[dNMeL]V[NMeI][dA])) has PAMPA_R1 of 7.24E-06

Per the record, CC(C)C[C@@H]1NC(=O)[C@@H](Cc2ccccc2)N(C)C(=O)[C@H](C(C)C)NC(=O)[C@H](C)NC(=O)[C@@H](C)NC(=O)[C@@H](Cc2ccccc2)N(C)C(=O)[C@@H]2CCCN2C(=O)[C@H](C(C)C)NC(=O)[C@@H]2CCCN2C(=O)[C@@H](C)NC1=O [Design D10.48] (cyclo(AV[dNMeF]L[dA]PVP[dNMeF][dA])) has PAMPA_R1 of 3.54E-07

###

Can you tell me Papp for the items I'm about to list?
# Assay info: Parallel artificial membrane permeability assay (PAMPA)
# Experimental parameters: PAMPA
Where a SMILES comes first, the peptide text is derived from it. [ ]: non-standard residue; d: D form. NMeL = CN[C@@H](CC(C)C)C(=O)O; dNMeL = CN[C@H](CC(C)C)C(=O)O; dNMeV = CN[C@@H](C(=O)O)C(C)C; dNMeA = CN[C@H](C)C(=O)O
Report the value in ×10⁻⁶ cm/s with no unit label.

Per the record, CC(C)C[C@@H]1NC(=O)[C@H](CC(C)C)N(C)C(=O)[C@H]2CCCN2C(=O)[C@H]2CCCN2C(=O)[C@H](CC(C)C)NC(=O)[C@@H](CC(C)C)N(C)C(=O)[C@@H](C)NC(=O)[C@@H](CC(C)C)N(C)C(=O)[C@H]2CCCN2C(=O)[C@@H](CC(C)C)NC(=O)[C@@H](C)N(C)C1=O [Design D11.15] (cyclo(L[dNMeA][dL][dP][dNMeL][dA][dNMeL]L[dP][dP][NMeL])) has Papp of 1.29

Per the record, CC[C@@H](C)[C@H]1NC(=O)[C@@H](CC(C)C)N(C)C(=O)[C@@H]2CCCN2C(=O)[C@H](C(C)C)NC(=O)[C@@H](C)N(C)C(=O)[C@@H]2CCCN2C(=O)[C@@H](CC(C)C)NC(=O)[C@@H](C(C)C)N(C)C(=O)[C@@H]2CCCN2C(=O)[C@H](C)NC(=O)[C@H](C(C)C)NC(=O)[C@@H]2CCCN2C1=O [Design D12.5] (cyclo(AP[dNMeV][dL]P[dNMeA]VP[dNMeL][dI]PV)) has Papp of 0.1
